system: S. aureus UC ® 9213; assay: In vitro MIC by agar dilution (NCCLS), Gram-positive bacteria: S. aureus; type: cell-based, Staphylococcus aureus; settings: Staphylococcus aureus, UC9213; S. aureus UC 9213; agar dilution; read-out: MIC (minimum inhibitory concentration: lowest concentration of drug that inhibits visible growth of the organism)
METRIC: MIC (µg/mL)
Report as a plain number; the unit µg/mL is understood.

CC(=O)NC[C@H]1CN(c2ccc(N3CCN(C4=NCCS4)CC3)c(F)c2)C(=O)O1 [Example 11]; 2
CC(=O)NC[C@H]1CN(c2ccc(N3CCN(c4n[nH]c(=O)s4)CC3)c(F)c2)C(=O)O1 [Example 24]; 1
CC(=O)NC[C@H]1CN(c2ccc(N3CCN(c4nc5ccc(F)c(F)c5o4)CC3)c(F)c2)C(=O)O1 [Example 10]; 2
CC(=O)NC[C@H]1CN(c2ccc(N3CCN(c4nc5ccccc5s4)CC3)c(F)c2)C(=O)O1 [Example 1]; 4
CCOC(=O)c1nnc(N2CCN(c3ccc(N4C[C@H](CNC(C)=O)OC4=O)cc3F)CC2)s1 [Example 19]; 4

Note: attention shifts to another entry.
Which value of MIC has been reported for CC(=O)NC[C@H]1CN(c2ccc(N3CCN(c4nc(=O)n(-c5ccccc5)s4)CC3)c(F)c2)C(=O)O1 [Example 26] in the records? 8

----------
system: S. aureus UC ® 9213; assay: In vitro MIC by agar dilution (NCCLS), Gram-positive bacteria: S. aureus; format: cell-based, Staphylococcus aureus; settings: Staphylococcus aureus, UC9213; S. aureus UC 9213; agar dilution; read-out: MIC (minimum inhibitory concentration: lowest concentration of drug that inhibits visible growth of the organism)
// MIC lookup, one value per entry
Report as a plain number; the unit µg/mL is understood.

CC(=O)NC[C@H]1CN(c2ccc(N3CCN(c4nncs4)CC3)c(F)c2)C(=O)O1 [Example 16]; 1
CC(=O)NC[C@H]1CN(c2ccc(N3CCN(c4nnc(N)s4)CC3)c(F)c2)C(=O)O1 [Example 18]; 2
CC(=O)NC[C@H]1CN(c2ccc(N3CCN(C4=NC(=O)CS4)CC3)c(F)c2)C(=O)O1 [Example 15]; 2
CC(=O)NC[C@H]1CN(c2ccc(N3CCN(c4nc5cccc(F)c5o4)CC3)c(F)c2)C(=O)O1 [Example 9]; 1
CC(=O)NC[C@H]1CN(c2ccc(N3CCN(c4nc5cc([N+](=O)[O-])ccc5o4)CC3)c(F)c2)C(=O)O1 [Example 4]; 1

Which value of MIC has been reported for CC(=O)NC[C@H]1CN(c2ccc(N3CCN(c4nc5ccc(F)cc5o4)CC3)c(F)c2)C(=O)O1 [Example 8] in the records? 2

Try the compound CC(=O)NC[C@H]1CN(c2ccc(N3CCN(c4nc(C)ns4)CC3)c(F)c2)C(=O)O1 [Example 25] 2

----------
tested on: S. aureus UC ® 9213; assay: In vitro MIC by agar dilution (NCCLS), Gram-positive bacteria: S. aureus; type: cell-based, Staphylococcus aureus; settings: Staphylococcus aureus, UC9213; S. aureus UC 9213; agar dilution; read-out: MIC (minimum inhibitory concentration: lowest concentration of drug that inhibits visible growth of the organism)
// MIC lookup, one value per entry
Report as a plain number; the unit µg/mL is understood.

CC(=O)NC[C@H]1CN(c2ccc(N3CCN(c4nnc(C)s4)CC3)c(F)c2)C(=O)O1; 0.5
CC(=O)NC[C@H]1CN(c2ccc(N3CCN(c4nc5ccccc5o4)CC3)c(F)c2)C(=O)O1; 2

Which value of MIC has been reported for CC(=O)NC[C@H]1CN(c2ccc(N3CCN(c4ncc([N+](=O)[O-])s4)CC3)c(F)c2)C(=O)O1 in the records? 2

Try the molecule CC(=O)NC[C@H]1CN(c2ccc(N3CCN(c4nccs4)CC3)c(F)c2)C(=O)O1 2

Try the molecule CC(=O)NC[C@H]1CN(c2ccc(N3CCN(c4nnc(C(F)(F)F)s4)CC3)c(F)c2)C(=O)O1 4

Try the molecule CC(=O)NC[C@H]1CN(c2ccc(N3CCN(C4=NCCO4)CC3)c(F)c2)C(=O)O1 32

Try the molecule CC(=O)NC[C@H]1CN(c2ccc(N3CCN(c4nnc(C)o4)CC3)c(F)c2)C(=O)O1 4

----------
// MIC lookup, one value per entry
system: S. aureus UC ® 9213; assay: In vitro MIC by agar dilution (NCCLS), Gram-positive bacteria: S. aureus; format: cell-based, Staphylococcus aureus; details: Staphylococcus aureus, UC9213; S. aureus UC 9213; agar dilution; read-out: MIC (minimum inhibitory concentration: lowest concentration of drug that inhibits visible growth of the organism)
Report as a plain number; the unit µg/mL is understood.

CC(=O)NC[C@H]1CN(c2ccc(N3CCN(c4nnnn4-c4ccccc4)CC3)c(F)c2)C(=O)O1; 4
CC(=O)NC[C@H]1CN(c2ccc(N3CCN(c4nc5ccc([N+](=O)[O-])cc5s4)CC3)c(F)c2)C(=O)O1; 0.5

Note: attention shifts to another entry.
Which value of MIC has been reported for CC(=O)NC[C@H]1CN(c2ccc(N3CCN(c4nc5cc(F)ccc5o4)CC3)c(F)c2)C(=O)O1 in the records? 4
